conditions: human, plasma, oral
RECORDED_ENDPOINT: Tmax (h)

>>> measured_value("CN(C)C(=N)N=C(N)N")
6.04

Measured values drawn from paper PMC7136079 for this set.
